Biological target: Serotonin 5-HT1A (Homo sapiens)
Sequence (P08908 1-422): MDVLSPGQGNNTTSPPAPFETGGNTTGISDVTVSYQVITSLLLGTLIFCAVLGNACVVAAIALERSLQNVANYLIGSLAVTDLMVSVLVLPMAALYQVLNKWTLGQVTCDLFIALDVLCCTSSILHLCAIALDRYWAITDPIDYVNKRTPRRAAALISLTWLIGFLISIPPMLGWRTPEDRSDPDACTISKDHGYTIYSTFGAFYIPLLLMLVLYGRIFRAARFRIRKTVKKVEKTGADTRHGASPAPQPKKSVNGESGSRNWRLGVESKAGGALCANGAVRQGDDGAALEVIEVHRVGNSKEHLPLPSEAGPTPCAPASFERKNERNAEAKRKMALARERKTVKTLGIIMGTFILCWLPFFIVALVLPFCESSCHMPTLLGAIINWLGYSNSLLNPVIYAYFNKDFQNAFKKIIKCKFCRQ
pKi: −log10 of the molar value.
Tick MET if pKi is 6 or greater. Tick NOT MET if pKi is less than 6.

* CCN(CCCNC(=O)c1ccc(-c2ccsc2)cc1)CCNC(=O)c1cc(Br)cc(OC)c1OC [21g] | NOT MET
* CCN(CCCNC(=O)c1cn2ccccc2n1)CCNC(=O)c1cc(Br)cc(OC)c1OC [21e] | MET
* CCN(CCCNC(=O)c1ccsc1)CCNC(=O)c1cc(Br)cc(OC)c1OC [21i] | MET
* CCCN(CCCNC(=O)c1ccc(-c2cccs2)cc1)CCNC(=O)c1cc(Br)cc(OC)c1OC [20a] | MET
* CCN(CCCNC(=O)c1ccc(-c2cccs2)cc1)CCNC(=O)c1cc(Br)cc(OC)c1OC | NOT MET
* CCN(CCCNC(=O)c1ccc(-c2ccncc2)cc1)CCNC(=O)c1cc(Br)cc(OC)c1OC [21c] | MET
